- target.entity: furin, P09958;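 further: purified furin at 1:10 enzyme:substrate in 50 mM HEPES pH 7.5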
- Sequence (P09958 whole entry): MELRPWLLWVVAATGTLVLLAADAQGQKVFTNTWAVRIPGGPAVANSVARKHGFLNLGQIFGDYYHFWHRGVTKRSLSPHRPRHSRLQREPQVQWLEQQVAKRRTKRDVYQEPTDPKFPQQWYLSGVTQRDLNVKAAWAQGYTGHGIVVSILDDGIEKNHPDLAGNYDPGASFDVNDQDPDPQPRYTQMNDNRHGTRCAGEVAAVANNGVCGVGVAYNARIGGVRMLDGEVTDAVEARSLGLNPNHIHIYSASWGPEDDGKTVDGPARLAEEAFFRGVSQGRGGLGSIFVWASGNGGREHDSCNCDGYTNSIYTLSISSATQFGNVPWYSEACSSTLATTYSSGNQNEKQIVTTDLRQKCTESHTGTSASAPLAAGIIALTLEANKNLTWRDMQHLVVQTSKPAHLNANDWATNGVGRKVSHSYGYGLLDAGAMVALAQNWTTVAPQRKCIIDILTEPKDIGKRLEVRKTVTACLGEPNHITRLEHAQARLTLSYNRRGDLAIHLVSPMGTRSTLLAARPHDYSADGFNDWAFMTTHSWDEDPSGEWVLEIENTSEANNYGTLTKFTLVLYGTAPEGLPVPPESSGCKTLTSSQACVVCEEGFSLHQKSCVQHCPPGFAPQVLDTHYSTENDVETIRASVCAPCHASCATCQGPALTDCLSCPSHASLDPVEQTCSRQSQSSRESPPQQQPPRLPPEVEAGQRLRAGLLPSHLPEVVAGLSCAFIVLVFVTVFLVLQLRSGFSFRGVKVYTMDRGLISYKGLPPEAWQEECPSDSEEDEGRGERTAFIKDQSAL
- assay.method.text: furin cleavage Z-score vs untreated control; higher = more cleavage, active = 3.5 or more, inactive = 1 or less, 8 variable residues between constant flanks
- test.settings: 7.5 min
Some of the results follow. How many sequences the whole screen found active is unknown.
API: response.call in yes (1) (active), no (0) (inactive)

(Q) Field: outcome | Entry: CAREKRAAEQAGNASASA [FS-1850]
(A) yes (1)

(Q) Field: outcome | Entry: CARHKKSKFTAGNASASA [FS-3253]
(A) no (0)

(Q) Field: outcome | Entry: CACVRRSPCAAGNASASA [FS-2118]
(A) no (0)

(Q) Field: outcome | Entry: CAREKRSNSQAGNASASA [FS-2008]
(A) yes (1)

(Q) Field: outcome | Entry: CAREKRGGETAGNASASA [FS-2134]
(A) no (0)

(Q) Field: outcome | Entry: CARSSRSPPGAGNASASA [FS-3098]
(A) no (0)

(Q) Field: outcome | Entry: CACFRKHPDAAGNASASA [HC453]
(A) no (0)

(Q) Field: outcome | Entry: CAVVNTTKRDAGNASASA [FS-967]
(A) no (0)

(Q) Field: outcome | Entry: CAQHLPYIEQAGNASASA [HC1017]
(A) no (0)

(Q) Field: outcome | Entry: CAVKKRTKRDAGNASASA [FS-1579]
(A) yes (1)

(Q) Field: outcome | Entry: CAREKKSNSPAGNASASA [FS-2006]
(A) no (0)

(Q) Field: outcome | Entry: CAAKRRTKRDAGNASASA [FS-1509]
(A) yes (1)
